Each recorded value in this set is attributed to paper PMC12332157.

Assay: Biodistribution in BALB/c nu/nu mice bearing PC-3 xenografts
Type: in vivo
Settings: female, BALB/c nu/nu, mouse, lungs, iv, 50 pmol, total radioactivity; 2 h p.i., i.v.; read-out: Radionuclide concentration, Lungs
Starred links: 1 amine or outer side, 2 acyl side, 3 side chain; linkers in the order of their positions; H or OH if unused. Non-standard residues stand in square brackets, D forms with d. Residues, ends and D or L forms follow the SMILES beside them. *: point of attachment. NOTA = O=C(O)CN1CCN(CC(=O)O)CCN(CC(=O)*)CC1; Sta = CC(C)C[C@H](N)[C@@H](O)CC(=O)O; X2 = O=C(COc1cccc(CN[*:1])c1)[*:2]; X1 = O=C(Cc1ccccc1CCN[*:1])[*:2]; X3 = O=C(COc1ccccc1CN[*:1])[*:2]
Provide the reported tissue uptake at 2 h of each item.

Quick one: give measured tissue uptake at 2 h for CC(=O)N[C@@H](CCCCNC(=O)CN1CCN(CC(=O)O)CCN(CC(=O)O)CC1)C(=O)NCc1cccc(OCC(=O)N[C@H](Cc2ccccc2)C(=O)N[C@@H](CCC(N)=O)C(=O)N[C@@H](Cc2c[nH]c3ccccc23)C(=O)N[C@@H](C)C(=O)N[C@H](C(=O)NCC(=O)N[C@@H](Cc2c[nH]cn2)C(=O)N[C@@H](CC(C)C)[C@@H](O)CC(=O)N[C@@H](CC(C)C)C(N)=O)C(C)C)c1 [[^68Ga]Ga-NOTA-mMA-RM26, metal not drawn] (Ac-K(NOTA)[X2][dF]QWAVGH[Sta]L-NH2) 7.1 %ID/g

Given the molecule CC(=O)N[C@@H](CCCCNC(=O)CN1CCN(CC(=O)O)CCN(CC(=O)O)CC1)C(=O)NCc1ccccc1OCC(=O)N[C@H](Cc1ccccc1)C(=O)N[C@@H](CCC(N)=O)C(=O)N[C@@H](Cc1c[nH]c2ccccc12)C(=O)N[C@@H](C)C(=O)N[C@H](C(=O)NCC(=O)N[C@@H](Cc1c[nH]cn1)C(=O)N[C@@H](CC(C)C)[C@@H](O)CC(=O)N[C@@H](CC(C)C)C(N)=O)C(C)C [[^68Ga]Ga-NOTA-oMA-RM26, metal not drawn] (Ac-K(NOTA)[X3][dF]QWAVGH[Sta]L-NH2) , write its reported tissue uptake at 2 h. 5.7 %ID/g

Fill in reported tissue uptake at 2 h for this entry: CC(=O)N[C@@H](CCCCNC(=O)CN1CCN(CC(=O)O)CCN(CC(=O)O)CC1)C(=O)NCCc1ccccc1CC(=O)N[C@H](Cc1ccccc1)C(=O)N[C@@H](CCC(N)=O)C(=O)N[C@@H](Cc1c[nH]c2ccccc12)C(=O)N[C@@H](C)C(=O)N[C@H](C(=O)NCC(=O)N[C@@H](Cc1c[nH]cn1)C(=O)N[C@@H](CC(C)C)[C@@H](O)CC(=O)N[C@@H](CC(C)C)C(N)=O)C(C)C [[^68Ga]Ga-NOTA-oET-RM26, metal not drawn] (Ac-K(NOTA)[X1][dF]QWAVGH[Sta]L-NH2) 0.45 %ID/g

====

Assay: Biodistribution in BALB/c nu/nu mice bearing PC-3 xenografts
Type: in vivo
Details: female, BALB/c nu/nu, mouse, stomach, iv, total radioactivity; Blockade (co-injection of NOTA-PEG2-RM26), 2 h; read-out: Radionuclide concentration, Stomach
Starred links: 1 amine or outer side, 2 acyl side, 3 side chain; linkers in the order of their positions; H or OH if unused. Non-standard residues stand in square brackets, D forms with d. Residues, ends and D or L forms follow the SMILES beside them. *: point of attachment. NOTA = O=C(O)CN1CCN(CC(=O)O)CCN(CC(=O)*)CC1; Sta = CC(C)C[C@H](N)[C@@H](O)CC(=O)O; X2 = O=C(COc1cccc(CN[*:1])c1)[*:2]; X1 = O=C(Cc1ccccc1CCN[*:1])[*:2]; X3 = O=C(COc1ccccc1CN[*:1])[*:2]
observation.type: tissue uptake at 2 h (%ID/g)
Provide the reading as a plain figure in %ID/g.

Report tissue uptake at 2 h for CC(=O)N[C@@H](CCCCNC(=O)CN1CCN(CC(=O)O)CCN(CC(=O)O)CC1)C(=O)NCCc1ccccc1CC(=O)N[C@H](Cc1ccccc1)C(=O)N[C@@H](CCC(N)=O)C(=O)N[C@@H](Cc1c[nH]c2ccccc12)C(=O)N[C@@H](C)C(=O)N[C@H](C(=O)NCC(=O)N[C@@H](Cc1c[nH]cn1)C(=O)N[C@@H](CC(C)C)[C@@H](O)CC(=O)N[C@@H](CC(C)C)C(N)=O)C(C)C [[^68Ga]Ga-NOTA-oET-RM26, metal not drawn] (Ac-K(NOTA)[X1][dF]QWAVGH[Sta]L-NH2) 0.55

Please look at this compound and report its tissue uptake at 2 h: CC(=O)N[C@@H](CCCCNC(=O)CN1CCN(CC(=O)O)CCN(CC(=O)O)CC1)C(=O)NCc1cccc(OCC(=O)N[C@H](Cc2ccccc2)C(=O)N[C@@H](CCC(N)=O)C(=O)N[C@@H](Cc2c[nH]c3ccccc23)C(=O)N[C@@H](C)C(=O)N[C@H](C(=O)NCC(=O)N[C@@H](Cc2c[nH]cn2)C(=O)N[C@@H](CC(C)C)[C@@H](O)CC(=O)N[C@@H](CC(C)C)C(N)=O)C(C)C)c1 [[^68Ga]Ga-NOTA-mMA-RM26, metal not drawn] (Ac-K(NOTA)[X2][dF]QWAVGH[Sta]L-NH2) 0.77

Assign tissue uptake at 2 h to the following record: CC(=O)N[C@@H](CCCCNC(=O)CN1CCN(CC(=O)O)CCN(CC(=O)O)CC1)C(=O)NCc1ccccc1OCC(=O)N[C@H](Cc1ccccc1)C(=O)N[C@@H](CCC(N)=O)C(=O)N[C@@H](Cc1c[nH]c2ccccc12)C(=O)N[C@@H](C)C(=O)N[C@H](C(=O)NCC(=O)N[C@@H](Cc1c[nH]cn1)C(=O)N[C@@H](CC(C)C)[C@@H](O)CC(=O)N[C@@H](CC(C)C)C(N)=O)C(C)C [[^68Ga]Ga-NOTA-oMA-RM26, metal not drawn] (Ac-K(NOTA)[X3][dF]QWAVGH[Sta]L-NH2) 1.1

====

Experiment: Biodistribution in BALB/c nu/nu mice bearing PC-3 xenografts
Format: in vivo
Conditions: female, BALB/c nu/nu, mouse, kidneys, iv, 50 pmol, total radioactivity; 2 h p.i., i.v.; read-out: Radionuclide concentration, Kidneys
Starred links: 1 amine or outer side, 2 acyl side, 3 side chain; linkers in the order of their positions; H or OH if unused. Non-standard residues stand in square brackets, D forms with d. Residues, ends and D or L forms follow the SMILES beside them. *: point of attachment. NOTA = O=C(O)CN1CCN(CC(=O)O)CCN(CC(=O)*)CC1; Sta = CC(C)C[C@H](N)[C@@H](O)CC(=O)O; X2 = O=C(COc1cccc(CN[*:1])c1)[*:2]; X1 = O=C(Cc1ccccc1CCN[*:1])[*:2]; X3 = O=C(COc1ccccc1CN[*:1])[*:2]
observation.type: tissue uptake at 2 h (%ID/g)
The response must be a number in %ID/g with no trailing unit.

Tell me tissue uptake at 2 h reported for CC(=O)N[C@@H](CCCCNC(=O)CN1CCN(CC(=O)O)CCN(CC(=O)O)CC1)C(=O)NCc1ccccc1OCC(=O)N[C@H](Cc1ccccc1)C(=O)N[C@@H](CCC(N)=O)C(=O)N[C@@H](Cc1c[nH]c2ccccc12)C(=O)N[C@@H](C)C(=O)N[C@H](C(=O)NCC(=O)N[C@@H](Cc1c[nH]cn1)C(=O)N[C@@H](CC(C)C)[C@@H](O)CC(=O)N[C@@H](CC(C)C)C(N)=O)C(C)C [[^68Ga]Ga-NOTA-oMA-RM26, metal not drawn] (Ac-K(NOTA)[X3][dF]QWAVGH[Sta]L-NH2) 6.3

Fill in reported tissue uptake at 2 h for this entry: CC(=O)N[C@@H](CCCCNC(=O)CN1CCN(CC(=O)O)CCN(CC(=O)O)CC1)C(=O)NCc1cccc(OCC(=O)N[C@H](Cc2ccccc2)C(=O)N[C@@H](CCC(N)=O)C(=O)N[C@@H](Cc2c[nH]c3ccccc23)C(=O)N[C@@H](C)C(=O)N[C@H](C(=O)NCC(=O)N[C@@H](Cc2c[nH]cn2)C(=O)N[C@@H](CC(C)C)[C@@H](O)CC(=O)N[C@@H](CC(C)C)C(N)=O)C(C)C)c1 [[^68Ga]Ga-NOTA-mMA-RM26, metal not drawn] (Ac-K(NOTA)[X2][dF]QWAVGH[Sta]L-NH2) 8.4

Output tissue uptake at 2 h of CC(=O)N[C@@H](CCCCNC(=O)CN1CCN(CC(=O)O)CCN(CC(=O)O)CC1)C(=O)NCCc1ccccc1CC(=O)N[C@H](Cc1ccccc1)C(=O)N[C@@H](CCC(N)=O)C(=O)N[C@@H](Cc1c[nH]c2ccccc12)C(=O)N[C@@H](C)C(=O)N[C@H](C(=O)NCC(=O)N[C@@H](Cc1c[nH]cn1)C(=O)N[C@@H](CC(C)C)[C@@H](O)CC(=O)N[C@@H](CC(C)C)C(N)=O)C(C)C [[^68Ga]Ga-NOTA-oET-RM26, metal not drawn] (Ac-K(NOTA)[X1][dF]QWAVGH[Sta]L-NH2) 5.9
